Data provenance: ChEMBL document CHEMBL1201861

Here, each record is paired with measured IC50 data.
Tested on: NB12;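 also: growth inhibition of human NB12 cells, read out by a cell viability assay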
Experiment: cells
Assay type: functional, cell-based
Details: Homo sapiens
Description: SANGER: Inhibition of human NB12 cell growth in a cell viability assay.

| Compound | Target System | IC50 |
| --- | --- | --- |
| CCCS(=O)(=O)Nc1ccc(F)c(C(=O)c2c[nH]c3ncc(Cl)cc23)c1F [PLX-4720] | NB12 | > 10000 nM |
| CCn1c(-c2nonc2N)nc2cnc(Oc3cccc(NC(=O)c4ccc(OCCN5CCOCC5)cc4)c3)cc21 [GSK-269962A] | NB12 | > 2500 nM |
| O=c1cc(N2CCOCC2)oc2c(-c3cccc4c3sc3ccccc34)cccc12 | NB12 | > 2000 nM |

###

Tested on: SBC-1;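 also: cell viability assay measuring growth inhibition of the SBC-1 cell line, IC50 being the concentration that halves growth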
Experiment: cells
Assay type: functional, cell-based
Details: Homo sapiens
Description: SANGER: Inhibition of human SBC-1 cell growth in a cell viability assay.
Readings of IC50 for the listed molecules

| Record Smiles | Limit Qualifier | IC50 [nM] |
| --- | --- | --- |
| C[C@]12O[C@H](C[C@]1(O)CO)n1c3ccccc3c3c4c(c5c6ccccc6n2c5c31)CNC4=O | = | 60.6 |
| CC(=O)c1c(C)c2cnc(Nc3ccc(N4CCNCC4)cn3)nc2n(C2CCCC2)c1=O | > | 4000 |
| Fc1cc(-c2cc[nH]/c(=N/c3ccc(-n4cnc(N5CCOCC5)n4)cc3)n2)cc(N2CCOCC2)c1 | > | 5120 |
| CC(C)=CC[C@@H](O)C1=CC(=O)c2c(O)ccc(O)c2C1=O | = | 12100 |
| O=C(CCCCCCC(=O)Nc1ccccc1)NO | = | 794 |

###

Listed here: items and their measured IC50.
System: NY
Assay: cells
Format: functional, cell-based
Details: Homo sapiens
Description: SANGER: Inhibition of human NY cell growth in a cell viability assay.

| Record Smiles | IC50 |
| --- | --- |
| C/C(O)=C(\C#N)C(=O)Nc1cc(Br)ccc1Br | > 16 µM |
| CC(=O)c1c(C)c2cnc(Nc3ccc(N4CCNCC4)cn3)nc2n(C2CCCC2)c1=O | > 4 µM |
| NC(=O)c1ncn([C@@H]2O[C@H](COP(=O)(O)O)[C@@H](O)[C@H]2O)c1N | 495 µM |
| CC[C@]1(O)C[C@@H]2CN(CCc3c([nH]c4ccccc34)[C@@](C(=O)OC)(c3cc4c(cc3OC)N(C)[C@H]3[C@@](O)(C(=O)OC)[C@H](OC(C)=O)[C@]5(CC)C=CCN6CC[C@]43[C@@H]65)C2)C1 | > 0.1 µM |
| Cn1c(=O)n(-c2ccc(C(C)(C)C#N)cc2)c2c3cc(-c4cnc5ccccc5c4)ccc3ncc21 | 1.17 µM |

###

Tested on: HCC1187;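 also: growth inhibition of HCC1187 cells, read out with a cell viability assay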
Test: cells
Assay type: functional, cell-based
Details: Homo sapiens
Description: SANGER: Inhibition of human HCC1187 cell growth in a cell viability assay.
The following compounds are shown together with reported IC50 values.
Measurement Label: IC50

| Compound | Measurement Label | Value Observed |
| --- | --- | --- |
| Fc1cc(-c2cc[nH]/c(=N/c3ccc(-n4cnc(N5CCOCC5)n4)cc3)n2)cc(N2CCOCC2)c1 | IC50 | 594 nM |
| CO[C@@]12[C@H](COC(N)=O)C3=C(C(=O)C(C)=C(N)C3=O)N1C[C@@H]1N[C@@H]12 | IC50 | 8920 nM |
| C/C=C(/C)C(=O)O[C@H]1C(C)=C2[C@H]([C@@H]1OC(=O)CCCCCCC)[C@@](C)(OC(C)=O)C[C@H](OC(=O)CCC)[C@@]1(O)[C@H]2OC(=O)[C@@]1(C)O | IC50 | 505 nM |
| C/C(O)=C(\C#N)C(=O)Nc1cc(Br)ccc1Br | IC50 | > 16000 nM |
| Cn1c(=O)n(-c2ccc(C(C)(C)C#N)cc2)c2c3cc(-c4cnc5ccccc5c4)ccc3ncc21 | IC50 | 576 nM |
| CC(O)(CS(=O)(=O)c1ccc(F)cc1)C(=O)Nc1ccc(C#N)c(C(F)(F)F)c1 (centres undefined) [BICALUTAMIDE] | IC50 | > 1020 nM |
| CCNc1cc(N[C@H]2CC[C@@H](O)CC2)nc(Nc2ccc3c(ccn3Cc3ccccc3)c2)n1 | IC50 | > 5120 nM |
| CCNC(=O)c1noc(-c2cc(C(C)C)c(O)cc2O)c1-c1ccc(CN2CCOCC2)cc1 | IC50 | > 256 nM |
| C[C@]1(c2nc3c(C(N)=O)cccc3[nH]2)CCCN1 | IC50 | > 5000 nM |

###

Test system: SK-MEL-2;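 also: growth inhibition of human SK-MEL-2 cells measured with a cell viability assay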
Test: cells
Assay type: functional, cell-based
Details: Homo sapiens
Description: SANGER: Inhibition of human SK-MEL-2 cell growth in a cell viability assay.

| Compound | IC50 |
| --- | --- |
| O=c1cc(N2CCOCC2)oc2c(-c3cccc4c3sc3ccccc34)cccc12 | > 2 µM |
| CCCS(=O)(=O)Nc1ccc(F)c(C(=O)c2c[nH]c3ncc(Cl)cc23)c1F | > 10 µM |
| O=C(CCCCCCC(=O)Nc1ccccc1)NO | 0.809 µM |
| COc1cc(C)c(Sc2cnc(NC(=O)c3ccc(CNC(C)C(C)(C)C)cc3)s2)cc1C(=O)N1CCN(C(C)=O)CC1 (configuration not stated) | > 10.2 µM |
| Cc1[nH]c(/C=C2\C(=O)Nc3ccc(S(=O)(=O)Cc4c(Cl)cccc4Cl)cc32)c(C)c1C(=O)N1CCC[C@@H]1CN1CCCC1 | > 2 µM |
| NC(=O)c1ncn([C@@H]2O[C@H](COP(=O)(O)O)[C@@H](O)[C@H]2O)c1N | > 2000 µM |
| Cn1cc(/C=C2\C(=O)Nc3cccnc32)c2ccccc21 | > 2 µM |

###

System: OAW-42
Experiment: cells
Type: functional, cell-based
Settings: Homo sapiens
Description: SANGER: Inhibition of human OAW-42 cell growth in a cell viability assay.
A collection of compounds and their measured IC50

| Record Smiles | Unit Of Measurement | Limit Qualifier | IC50 |
| --- | --- | --- | --- |
| C/C=C(/C)C(=O)O[C@H]1C(C)=C2[C@H]([C@@H]1OC(=O)CCCCCCC)[C@@](C)(OC(C)=O)C[C@H](OC(=O)CCC)[C@@]1(O)[C@H]2OC(=O)[C@@]1(C)O | µM | = | 0.027 |
| NC(=O)c1ncn([C@@H]2O[C@H](COP(=O)(O)O)[C@@H](O)[C@H]2O)c1N | µM | > | 2000 |
| COc1cc(Nc2c(C#N)cnc3cc(OCCCN4CCN(C)CC4)c(OC)cc23)c(Cl)cc1Cl | µM | > | 2 |
| CC[C@@]1(O)C(=O)OCc2c1cc1n(c2=O)Cc2cc3ccccc3nc2-1 | µM | = | 0.00899 |
| CCNC(=O)c1noc(-c2cc(C(C)C)c(O)cc2O)c1-c1ccc(CN2CCOCC2)cc1 | µM | = | 0.0375 |
| O=c1cc(N2CCOCC2)oc2c(-c3cccc4c3sc3ccccc34)cccc12 | µM | > | 2 |

###

Test system: MRK-nu-1;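 also: cell viability assay measuring growth suppression of human MRK-nu-1 cells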
Test: cells
Assay type: functional, cell-based
Settings: Homo sapiens
Description: SANGER: Inhibition of human MRK-nu-1 cell growth in a cell viability assay.
Recorded IC50 values for a group of molecules are listed next.

| Molecule | Limit Qualifier | IC50 (nM) |
| --- | --- | --- |
| Cc1nc(Nc2ncc(C(=O)Nc3c(C)cccc3Cl)s2)cc(N2CCN(CCO)CC2)n1 [DASATINIB] | > | 1280 |
| C/C=C(/C)C(=O)O[C@H]1C(C)=C2[C@H]([C@@H]1OC(=O)CCCCCCC)[C@@](C)(OC(C)=O)C[C@H](OC(=O)CCC)[C@@]1(O)[C@H]2OC(=O)[C@@]1(C)O [THAPSIGARGIN] | = | 23.2 |
| CC(O)(CS(=O)(=O)c1ccc(F)cc1)C(=O)Nc1ccc(C#N)c(C(F)(F)F)c1 (stereo not given) [BICALUTAMIDE] | > | 1020 |
| Fc1cc(-c2cc[nH]/c(=N/c3ccc(-n4cnc(N5CCOCC5)n4)cc3)n2)cc(N2CCOCC2)c1 | = | 545 |
| C/C(O)=C(\C#N)C(=O)Nc1cc(Br)ccc1Br | > | 16000 |

###

System: HT-3;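 also: growth inhibition measured with a cell viability readout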
Assay: cells
Type: functional, cell-based
Details: Homo sapiens
Description: SANGER: Inhibition of human HT-3 cell growth in a cell viability assay.
A collection of molecules and their measured IC50

| Record Smiles | IC50 |
| --- | --- |
| O=c1cc(N2CCOCC2)oc2c(-c3cccc4c3sc3ccccc34)cccc12 | > 2000 nM |
| COc1cc(Nc2c(C#N)cnc3cc(OCCCN4CCN(C)CC4)c(OC)cc23)c(Cl)cc1Cl | > 2000 nM |
| C[C@]1(c2nc3c(C(N)=O)cccc3[nH]2)CCCN1 | > 5000 nM |
| O=c1[nH]c2ccccc2n1C1CCN(Cc2ccc(-c3nc4cc5[nH]cnc5cc4nc3-c3ccccc3)cc2)CC1 | > 2560 nM |
| C[C@]12O[C@H](C[C@]1(O)CO)n1c3ccccc3c3c4c(c5c6ccccc6n2c5c31)CNC4=O | 449 nM |

###

Test system: PC-3;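 also: cell viability assay measuring growth inhibition of PC-3 cells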
Assay: cells
Type: functional, cell-based
Conditions: Homo sapiens
Description: SANGER: Inhibition of human PC-3 cell growth in a cell viability assay.
Measurement Label: IC50

| Molecule | Target System | Value Observed |
| --- | --- | --- |
| C[C@]1(c2nc3c(C(N)=O)cccc3[nH]2)CCCN1 | PC-3 | > 5000 nM |
| C[C@]12O[C@H](C[C@]1(O)CO)n1c3ccccc3c3c4c(c5c6ccccc6n2c5c31)CNC4=O | PC-3 | 1710 nM |
| CC(O)(CS(=O)(=O)c1ccc(F)cc1)C(=O)Nc1ccc(C#N)c(C(F)(F)F)c1 (centres undefined) [BICALUTAMIDE] | PC-3 | > 1020 nM |
| COc1cc(Nc2c(C#N)cnc3cc(OCCCN4CCN(C)CC4)c(OC)cc23)c(Cl)cc1Cl | PC-3 | > 2000 nM |
